System: LN-229
Test Protocol: Cytotoxicity against human LN229 cells assessed as reduction in cell proliferation measured after 48 hrs by trypan blue dye-based cell counting analysis
Measurement Parameters: LN-229, 48 h
Measurement Type: pIC50
Note on units: pIC50 is unitless, being -log10 of a concentration expressed in mol/L.

# returns recorded pIC50 (system: LN-229) for "CC(=O)C(=NNc1ccccc1C#N)C(C)=O" 4.06

====

System: U-87 MG
Test Protocol: Cytotoxicity against human U87 cells assessed as reduction in cell proliferation measured after 48 hrs by trypan blue dye-based cell counting analysis
Measurement Type: pIC50
Note on units: pIC50 is unitless, being -log10 of a concentration expressed in mol/L.

# returns recorded pIC50 (system: U-87 MG) for "CC(=O)C(=NNc1ccccc1C#N)C(C)=O" 3.97
